Source of measurements: ChEMBL document CHEMBL3044967

test: Cytotoxicity against Homo sapiens (human) HeLa cells infected with HIV-1 NL4-3 assessed as cell viability at 100 uM by XTT assay; format: cell-based; conditions: read-out: Activity
What viability at 100 µM was measured for each of the following?
Number in %, nothing else.

Returns the measured viability at 100 µM for the input compound. Input: O=c1c(-c2nnc(-c3ccc(Cl)cc3)o2)cnc2ccccn12
94

Name the reported viability at 100 µM value associated with the compound O=c1c(-c2nnc(-c3ccccc3)o2)cnc2ccccn12
98

What value of viability at 100 µM has been recorded for this entry: COc1ccc(-c2nnc(-c3cnc4ccccn4c3=O)s2)cc1
97

Request the reported viability at 100 µM associated with Nc1nnc(-c2cnc3ccccn3c2=O)o1
96

Query: viability at 100 µM; subject: O=c1c(-c2nnc(-c3ccccc3)s2)cnc2ccccn12
100

Name the reported viability at 100 µM value associated with the compound O=c1c(-c2nnc(S)o2)cnc2ccccn12
100

Look at this compound and give its reported viability at 100 µM. COc1ccc(-c2nnc(-c3cnc4ccccn4c3=O)o2)cc1
100

What value of measured viability at 100 µM is listed for Cc1cn([C@H]2C[C@H](N=[N+]=[N-])[C@@H](CO)O2)c(=O)[nH]c1=O ?
100

Need viability at 100 µM, item O=c1c(-c2nnc(-c3ccc(F)cc3)s2)cnc2ccccn12
92

Any idea what viability at 100 µM was measured for Cc1ccc(-c2nnc(-c3cnc4ccccn4c3=O)o2)cc1 ?
94

Given O=c1c(-c2nnc(-c3ccc(Cl)cc3)s2)cnc2ccccn12 , state its recorded viability at 100 µM.
95

Return reported viability at 100 µM; argument: O=c1c(-c2nnc(-c3ccc(F)cc3)o2)cnc2ccccn12
100

Value lookup for viability at 100 µM; key = Cc1ccc(-c2nnc(-c3cnc4ccccn4c3=O)s2)cc1
93
